Cited source for all entries: patent US20120253008A1

Listing of entries alongside the reported kon.
- assayed_system: T1, human serum albumin (human, UniProt P02768 25-609)
- T1 construct: also called HSA
- assay_overview: SPR, BIAcore 3000, HSA on CM5 chip
The reply should be a number in M⁻¹ s⁻¹, with the unit left off.

Example entries and their recorded answers appear below.
binder: 2D3-9GS-59C2-MycHis (other) EVQLVESGGSLVQPGGSLRLSCAASGFTFDDYAMSWVRQVPGKGLEWVSSINWSGTHTDYADSVKGRFTISRNNANNTLYLQMNSLKSEDTAVYYCAKNWRDAGTTWFEKSGSAGQGTQVTVSSGGGGSGGGSAAARDWDFDVFGGGTPVGGAAAEQKLISEEDLNGAAHHHHHH
value_unit: M⁻¹ s⁻¹
numeric_value: 3730

binder: 2D3-9GS-59H12-MycHis (other) EVQLVESGGSLVQPGGSLRLSCAASGFTFDDYAMSWVRQVPGKGLEWVSSINWSGTHTDYADSVKGRFTISRNNANNTLYLQMNSLKSEDTAVYYCAKNWRDAGTTWFEKSGSAGQGTQVTVSSGGGGSGGGSAAARSWDFDVFGGGTPVGGAAAEQKLISEEDLNGAAHHHHHH
value_unit: M⁻¹ s⁻¹
numeric_value: 4590

binder: 2D3-9GS-59F2-MycHis (other) EVQLVESGGSLVQPGGSLRLSCAASGFTFDDYAMSWVRQVPGKGLEWVSSINWSGTHTDYADSVKGRFTISRNNANNTLYLQMNSLKSEDTAVYYCAKNWRDAGTTWFEKSGSAGQGTQVTVSSGGGGSGGGSAAARYWDFDVFGGGTPVGGAAAEQKLISEEDLNGAAHHHHHH
value_unit: M⁻¹ s⁻¹
numeric_value: 6140

Please find the next binder below.
Input: Check the records and state kon for 2D3-9GS-56E4-MycHis (other) EVQLVESGGSLVQPGGSLRLSCAASGFTFDDYAMSWVRQVPGKGLEWVSSINWSGTHTDYADSVKGRFTISRNNANNTLYLQMNSLKSEDTAVYYCAKNWRDAGTTWFEKSGSAGQGTQVTVSSGGGGSGGGSAAARYWDYDVFGGGTPVGGAAAEQKLISEEDLNGAAHHHHHH
Output: 5020
